Assay: Rat pharmacokinetic test, single subcutaneous injection
Parameters: species or system SD rats
Conditions: male, SD, in vivo; 4 w after single SC; CBD solution 300 μg/head, IVL5005 9 mg/head; rat serum; read-out: blood CBD concentration
metric: concentration at 4 w (ng/mL)
Your answer is read as ng/mL, so omit the unit and give the number.

According to the records, this molecule C=C(C)[C@@H]1CCC(C)=C[C@H]1c1c(O)cc(CCCCC)cc1O displays concentration at 4 w of 0

----------
Experiment: Rat pharmacokinetic test, single subcutaneous injection
Set-up: species or system SD rats
Settings: male, SD, in vivo; 7 w after single SC; CBD solution 300 μg/head, IVL5005 9 mg/head; rat serum; read-out: blood CBD concentration
metric: concentration at 7 w (ng/mL)
A number alone suffices; assume ng/mL.

# concentration at 7 w (compound: C=C(C)[C@@H]1CCC(C)=C[C@H]1c1c(O)cc(CCCCC)cc1O ) is 0

Origin of values: patent US20260130857A1
